B1: SPRY1 (parent)
chain: WIHRPGCRCKNSNTVYCKLESCPS

Variants of: B1
Assay: protein stability index of a GFP-peptide fusion (GPS, HEK-293T) (PSI 1-6); higher = more stable;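 note: lentivirally expressed fusions sorted by FACS into six bins by GFP to DsRed ratio, PSI derived from sequencing read proportions per bin multiplied by bin number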
Conditions: c terminus: a fixed tail appended
protein stability index values, listed per item

Below, 3 variants whose answers are already recorded.
| SEQUENCE | protein stability index |
| --- | --- |
| WIHCPGCRCKNSNTVYCKLESCPS | 2.77 |
| WIHRPGCRCKNSNTVYCKLEQCPS | 2.14 |
| AIHRPGCRCKNSNTVYCKLESCPS | 3.52 |

protein stability index reading for WIRRPGCRCKNSNTVYCKLESCPS : 2.44
